Molecular target: T1, 6xHis-PPARγ LBD (human peroxisome proliferator-activated receptor gamma ligand-binding domain, residues … (human, UniProt P37231-2 203-477))
T1 construct: TEV-cleavable N-terminal hexahistidine tag from pET46 Ek/LIC; the tag was not cleaved for protein used in fluorescence polarization; also called apo-PPARγ LBD; WT; source: E. coli BL21(DE3), purified (Ni-NTA, gel filtration); not shown: His6, N-terminal, kept
T1 sequence (looked up): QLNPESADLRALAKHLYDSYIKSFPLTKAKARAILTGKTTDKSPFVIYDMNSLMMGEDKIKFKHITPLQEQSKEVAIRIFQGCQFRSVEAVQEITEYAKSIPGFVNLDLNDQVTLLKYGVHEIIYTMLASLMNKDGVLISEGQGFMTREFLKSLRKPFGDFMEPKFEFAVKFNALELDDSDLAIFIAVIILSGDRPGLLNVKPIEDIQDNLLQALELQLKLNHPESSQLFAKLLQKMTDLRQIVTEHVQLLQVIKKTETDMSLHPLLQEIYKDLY
Test: fluorescence polarisation; 6xHis-PPARγ LBD (apo) serially diluted and plated with FITC-labeled coregulator peptide (180 nM stated for the TRAP220 ID2 peptide); 20 mM potassium phosphate, 50 mM KCl, 5 mM TCEP, 0.5 mM EDTA, 0.01% Tween-20, pH 8; 25 °C, 1 h; fit to a one site - total binding equation; n=3
Settings: both partners purified
Parameter: Kd (µM)
One number for each entry, in µM.

Exercise: Need Kd of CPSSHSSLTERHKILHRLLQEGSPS (The paper prints no limits; 676-700 is the conventional SRC-1 NR box 2 (ID2) peptide around LXXLL motif 4 (690-694). N-terminal FITC-Ahx and C-terminal amide are presumed by analogy with the other …) [SRC1 ID2 peptide] , thanks.
Key: 41.1
